Measurement protocol: Gelation test in solvents at room temperature
Type: physicochemical
Parameters: key: S, soluble (starting test at 20 mg/mL); I, insoluble; P, precipitate; G, stable gel, the numbers after G are preliminary MGCs in mg/mL; UG, slightly unstable gels or partial gels, concentrations are 20 mg/mL unless otherwise noted
Assay conditions: EtOH; Table 3
Procedure: Gelation tests were performed by adding incremental amounts of compounds to a solvent or solvent system at room temperature and observing the results (i.e., gel formation, solubility of compounds, insolubility of compounds, or formation of a precipitate). […] The term “precipation” means that the compound dissolves upon heating and sonicating, however, it crashes out of solution when the heat is removed. After the compounds were synthesized, they were screened for gelation properties. […]
Recorded endpoint: Gelation result

O=C(CN(Cc1ccccc1)C(=O)c1ccc(C(=O)N(CC(=O)NC2CCCCC2)Cc2ccccc2)cc1)NC1CCCCC1 :: UG
COc1ccc(CN(CC(=O)NCS(=O)(=O)c2ccc(C)cc2)C(=O)c2ccc(Br)cc2)cc1 :: P
COC1OC2COC(c3ccccc3)OC2C(O)C1N(CC(=O)NC1CCCCC1)C(C)=O (centres unmarked) :: G
CC1(C)OCC(CN(CC(=O)NC2CCCCC2)C(=O)c2ccc(Br)cc2)O1 (centres unmarked) :: P

Kindly review the next molecule as well.
Which value of Gelation result has been reported for CCOC(=O)CNC(=O)CN(Cc1ccc(OC)cc1)C(=O)CCC(=O)NC1C(OC)OC2COC(c3ccccc3)OC2C1O (centres unmarked) in the records?
G

* * *

Measurement protocol: Gelation test in solvents at room temperature
Assay type: physicochemical
Design: key: S, soluble (starting test at 20 mg/mL); I, insoluble; P, precipitate; G, stable gel, the numbers after G are preliminary MGCs in mg/mL; UG, slightly unstable gels or partial gels, concentrations are 20 mg/mL unless otherwise noted
Assay conditions: EtOH:H2O (1:2); Table 3
Recorded endpoint: Gelation result

CCOC(=O)CNC(=O)CN(C(=O)c1ccc(Br)cc1)C1C(OCC)OC2COC(c3ccccc3)OC2C1O (stereo not shown) :: G
O=C(CN(Cc1ccccc1)C(=O)c1ccc(C(=O)N(CC(=O)NC2CCCCC2)Cc2ccccc2)cc1)NC1CCCCC1 :: P
COC1OC(CO)C(O)C(O)C1N(CC(=O)NC1CCCCC1)C(=O)c1ccc(Br)cc1 (stereo not shown) :: P
O=C(CN(C(=O)c1ccccc1)c1ccccc1)NC1CCCCC1 :: P

* * *

For each record, write down the corresponding MGC in DMSO:H2O (1:2).
Measurement protocol: Gelation test in solvents at room temperature
Type: physicochemical
Assay conditions: DMSO:H2O (1:2); Table 2
Method: Gelation tests were performed by adding incremental amounts of compounds to a solvent or solvent system at room temperature and observing the results (i.e., gel formation, solubility of compounds, insolubility of compounds, or formation of a precipitate). […] The term “precipation” means that the compound dissolves upon heating and sonicating, however, it crashes out of solution when the heat is removed. After the compounds were synthesized, they were screened for gelation properties. […]
Answers are plain numbers, in mg/mL.

CCOC(=O)CNC(=O)CN(Cc1ccc(OC)cc1)C(=O)c1ccc(Br)cc1 :: 2.0

Fill in MGC in DMSO:H2O (1:2) for each of the 3 compounds listed.
1. CCOC(=O)CNC(=O)CN(Cc1ccc(OC)cc1)C(=O)c1ccccc1
2. CCOC(=O)CNC(=O)CN(C(=O)c1ccc(Br)cc1)C1C(OC)OC2COC(c3ccccc3)OC2C1O (stereo not shown)
3. O=C(CN(Cc1ccccc1)C(=O)c1ccc(Br)cc1)NC1CCCCC1

1. 20.0
2. 6.6
3. 5.0

* * *

Assign MGC in DMSO:H2O (1:2) to each entry below.
Measurement protocol: Gelation test in solvents at room temperature
Type: physicochemical
Assay conditions: DMSO:H2O (1:2); Table 2
Express the reported value numerically, then name its unit.

Below: 2 compounds and their reported MGC in DMSO:H2O (1:2).
C#CCCC(=O)N(CC(=O)NC1CCCCC1)Cc1ccccc1 :: 20.0 mg/mL
COc1ccc(CN(CC(=O)NC2CCCCC2)C(=O)c2ccc(Br)cc2)cc1 :: 6.6 mg/mL

Given O=C(CN(Cc1ccccc1)C(=O)c1ccc([N+](=O)[O-])cc1)NC1CCCCC1 , state its recorded MGC in DMSO:H2O (1:2).
10.0 mg/mL

* * *

Measurement protocol: Gelation test in solvents at room temperature
Assay type: physicochemical
Design: key: I, insoluble; P, precipitating; S, soluble at ~20 mg/mL; G, gel at room temperature; number is minimum gelation concentration
Assay conditions: DMSO:H2O (1:2), room temperature
Non-standard residues stand in square brackets, D forms with d. Residues, ends and D or L forms follow the SMILES beside them. *: point of attachment. Nphe = O=C(O)CNCc1ccccc1; Bz = O=C(c1ccccc1)*
Recorded endpoint: Gelation test result

Some compounds with recorded Gelation test result:
COC1OC2COC(c3ccccc3)OC2C(O)C1N(CC(=O)NC1CCCCC1)C(=O)c1ccccc1 (centres unmarked) :: P
O=C(CN(Cc1ccccc1)C(=O)c1ccc([N+](=O)[O-])cc1)NC1CCCCC1 :: G
O=C(CN(Cc1ccccc1)C(=O)c1ccccc1)NC1CCCCC1 :: P
COc1ccc(CN(CC(=O)NC2CCCCC2)C(=O)c2ccc(Br)cc2)cc1 :: G
CCOC(=O)CNC(=O)CN(C(=O)c1ccc(Br)cc1)C1C(OC)OC2COC(c3ccccc3)OC2C1O (centres unmarked) :: G

Look at each compound and report its Gelation test result.
1. CCOC(=O)CNC(=O)CN(Cc1ccc(OC)cc1)C(=O)c1ccc(Br)cc1
2. COC1OC2COC(c3ccccc3)OC2C(O)C1N(CC(=O)NC1CCCCC1)C(=O)c1ccc(Br)cc1 (centres unmarked)
3. CCOC(=O)CNC(=O)CN(Cc1ccccc1)C(=O)c1ccccc1 [Compound 22] (Bz-[Nphe]-Gly-OEt)

1: G; 2: P; 3: P

* * *

Measurement protocol: Gelation test in solvents at room temperature
Type: physicochemical
Design: key: I, insoluble; P, precipitating; S, soluble at ~20 mg/mL; G, gel at room temperature; number is minimum gelation concentration
Assay conditions: EtOH, room temperature
Non-standard residues stand in square brackets, D forms with d. Residues, ends and D or L forms follow the SMILES beside them. *: point of attachment. Nphe = O=C(O)CNCc1ccccc1; Bz = O=C(c1ccccc1)*
Recorded endpoint: Gelation test result

These recorded examples may help you get a feel for the data.
O=C(CN(Cc1ccccc1)C(=O)c1ccc([N+](=O)[O-])cc1)NC1CCCCC1 :: P
CCOC(=O)CNC(=O)CN(C(=O)c1ccc(Br)cc1)C1C(OC)OC2COC(c3ccccc3)OC2C1O (centres unmarked) :: I
O=C(CN(Cc1ccccc1)C(=O)c1ccccc1)NC1CCCCC1 :: P
CCOC(=O)CNC(=O)CN(Cc1ccccc1)C(=O)c1ccccc1 [Compound 22] (Bz-[Nphe]-Gly-OEt) :: P

Sample C#CCCC(=O)N(CC(=O)NC1CCCCC1)Cc1ccccc1 — what was its Gelation test result?
P

* * *

Measurement protocol: Gelation test in solvents at room temperature
Type: physicochemical
Set-up: key: I, insoluble; P, precipitating; S, soluble at ~20 mg/mL; G, gel at room temperature; number is minimum gelation concentration
Assay conditions: EtOH, room temperature
Recorded endpoint: Gelation test result

CCOC(=O)CNC(=O)CN(Cc1ccc(OC)cc1)C(=O)c1ccc(Br)cc1 [Compound 21] :: G
COC1OC2COC(c3ccccc3)OC2C(O)C1N(CC(=O)NC1CCCCC1)C(=O)c1ccc(Br)cc1 (centres unmarked) [Compound 25] :: G
COC1OC2COC(c3ccccc3)OC2C(O)C1N(CC(=O)NC1CCCCC1)C(=O)c1ccccc1 (centres unmarked) [Compound 24] :: G
COc1ccc(CN(CC(=O)NC2CCCCC2)C(=O)c2ccc(Br)cc2)cc1 [Compound 20] :: P

* * *

Measurement protocol: Gelation test in solvents at room temperature
Type: physicochemical
Assay conditions: EtOH:H2O (1:1), room temperature
I'd appreciate it if you could supply minimum gelation concentration values for the items below.
Numbers only, in mg/mL.

Use these answered entries as a reference point.
O=C(CN(Cc1ccccc1)C(=O)c1ccc([N+](=O)[O-])cc1)NC1CCCCC1 :: 20.0
CCOC(=O)CNC(=O)CN(C(=O)c1ccc(Br)cc1)C1C(OC)OC2COC(c3ccccc3)OC2C1O (stereo not drawn) :: 20.0
O=C(CN(Cc1ccccc1)C(=O)c1ccc(Br)cc1)NC1CCCCC1 :: 20.0
CCOC(=O)CNC(=O)CN(Cc1ccc(OC)cc1)C(=O)c1ccc(Br)cc1 :: 5.0
COc1ccc(CN(CC(=O)NC2CCCCC2)C(=O)c2ccc(Br)cc2)cc1 :: 10.0

GET /values?readout=minimum gelation concentration&item= COC1OC2COC(c3ccccc3)OC2C(O)C1N(CC(=O)NC1CCCCC1)C(=O)c1ccc(Br)cc1 (stereo not drawn)
20.0

* * *

Measurement protocol: Gelation test in solvents at room temperature
Type: physicochemical
Set-up: key: S, soluble (starting test at 20 mg/mL); I, insoluble; P, precipitate; G, stable gel, the numbers after G are preliminary MGCs in mg/mL; UG, slightly unstable gels or partial gels, concentrations are 20 mg/mL unless otherwise noted
Assay conditions: Water; Table 3
Recorded endpoint: Gelation result

Use these answered entries as a reference point.
CCOC(=O)CNC(=O)CN(Cc1ccc(OC)cc1)C(=O)CCC(=O)NC1C(OC)OC2COC(c3ccccc3)OC2C1O (stereo not drawn) :: G
COc1ccc(CN(CC(=O)NCC(=O)O)C(=O)c2ccc(Br)cc2)cc1 :: P
COc1ccc(C(C(=O)NC2CCCCC2)N(Cc2ccccc2)C(C)=O)cc1 (racemic) :: UG
O=C(CN(C(=O)c1ccccc1)c1ccccc1)NC1CCCCC1 :: P
O=C(O)CNC(=O)CN(Cc1ccccc1)C(=O)c1ccc(C(=O)N(CC(=O)NCC(=O)O)Cc2ccccc2)cc1 :: P
COc1ccc(CN(CC(=O)Nc2ccc(Oc3ccc(NC(=O)CN(Cc4ccc(OC)cc4)C(=O)c4ccc(Br)cc4)cc3)cc2)C(=O)c2ccc(Br)cc2)cc1 :: P

Give Gelation result for each of the items listed below.
1. CCOC(=O)CNC(=O)CN(C(=O)c1ccc(Br)cc1)C1C(OCC)OC2COC(c3ccccc3)OC2C1O (stereo not drawn)
2. COC1OC2COC(c3ccccc3)OC2C(O)C1N(CC(=O)NC1CCCCC1)C(C)=O (stereo not drawn)
3. COc1ccc(C(C(=O)NC2CCCCC2)N(C(C)=O)[C@H](C)c2ccccc2)cc1 (single isomer, unassigned) [Compound 38b]
4. CCOC(=O)CNC(=O)CN(CCNC(=O)OC(C)(C)C)C(=O)Cc1ccc2ccccc2c1
5. COc1ccc(C(C(=O)NC2CCCCC2)N(C(C)=O)[C@H](C)c2ccccc2)cc1 (single isomer, unassigned) [Compound 38a]
6. O=C(CN(Cc1ccccc1)C(=O)c1ccc(C(=O)N(CC(=O)NC2CCCCC2)Cc2ccccc2)cc1)NC1CCCCC1

1. P
2. P
3. G
4. P
5. UG
6. UG

Entry source: patent US20140296354A1
